tested_on: KCNQ2/KCNQ3 potassium channel current expressed in mammalian cells (Homo sapiens, UniProt O43525+O43526)
method_notes: KCNQ2/KCNQ3 current enhancement, automated parallel patch-clamp (PatchXpress 7000A)
Format: cell-based
protocol_conditions: 30 μM test compound, 5 minutes exposure, ambient temperature, mean±s.e.m
readout: Mean % Enhancement of KCNQ2/KCNQ3 (%)

Some molecules with known Mean % Enhancement of KCNQ2/KCNQ3 results, for comparison:
O=S(=O)(NCCO)c1ccccc1Nc1c(Cl)cccc1Cl    56.8
O=S(=O)(Cc1ccccc1Nc1c(Cl)cccc1Cl)NCCOCCO    32.4

I. O=S(=O)(NCCO)c1cccc(Nc2c(Cl)cc(Cl)cc2Cl)c1
II. O=S(=O)(NCCO)c1ccccc1Nc1c(Cl)cc(Cl)cc1Cl
Endpoint returns whichever of I and II has the numerically higher Mean % Enhancement of KCNQ2/KCNQ3. Pick one and reply with its label.
I
